Tested on: Aspergillus niger
ASSAY_PROTOCOL: Antifungal activity against Aspergillus niger NBRC 4066 assessed as growth inhibition at 25 to 200 uM incubated for 48 hrs by microtiter plate based assay
Format: functional
Calls of active or inactive are those of the source. No cut-off for these calls is given here.

# QUERY_SMILES, TESTED_TARGET, growth inhibition (GI)
rows = [
    ("COC(=O)C(C)(C)[C@@H]1CC[C@]2(C)[C@H](CC[C@@H]3[C@@H]([C@](C)(O)CC[C@@H](O)C(C)(C)O)CC[C@]32C)[C@@]1(C)/C=C/NC=O", "Aspergillus niger", "inactive"),
    ("COC(=O)C(C)(C)[C@@H]1CC[C@]2(C)[C@H](CC[C@@H]3[C@@H]([C@](C)(O)CC[C@@H](O)C(C)(C)O)CC[C@]32C)[C@@]1(C)CC=O", "Aspergillus niger", "inactive"),
    ("C=C(C)[C@@H]1CC[C@]2(C)[C@H](CC[C@@H]3[C@@H]([C@](C)(O)CC[C@@H](O)C(C)(C)O)CC[C@]32C)[C@@]1(C)CCC(=O)OC", "Aspergillus niger", "60 - 89%"),
    ("COC(=O)C(C)(C)[C@@H]1CC[C@]2(C)[C@H](CC[C@@H]3[C@@H]([C@](C)(O)CC[C@@H](O)C(C)(C)O)CC[C@]32C)[C@@]1(C)CC(=O)O", "Aspergillus niger", "inactive"),
    ("COC(=O)C(C)(C)[C@@H]1CC[C@]2(C)[C@H](CC[C@@H]3[C@@H]([C@]4(C)CC[C@H](C(C)(C)O)O4)CC[C@]32C)[C@@]1(C)/C=C/NC=O", "Aspergillus niger", "inactive"),
]

###

Tested on: Bacillus subtilis
ASSAY_PROTOCOL: Antibacterial activity against Bacillus subtilis NBRC 3134 assessed as growth inhibition at 25 to 200 uM incubated for 24 hrs by microtiter plate based assay
Format: functional
Calls of active or inactive are those of the source. The rule behind the calls is not given here.

# QUERY_SMILES, growth inhibition (GI)
records = [
    ("COC(=O)C(C)(C)[C@@H]1CC[C@]2(C)[C@H](CC[C@@H]3[C@@H]([C@](C)(O)CC[C@@H](O)C(C)(C)O)CC[C@]32C)[C@@]1(C)CC=O", "inactive"),
    ("COC(=O)C(C)(C)[C@@H]1CC[C@]2(C)[C@H](CC[C@@H]3[C@@H]([C@](C)(O)CC[C@@H](O)C(C)(C)O)CC[C@]32C)[C@@]1(C)CC(=O)O", "inactive"),
    ("COC(=O)C(C)(C)[C@@H]1CC[C@]2(C)[C@H](CC[C@@H]3[C@@H]([C@](C)(O)CC[C@@H](O)C(C)(C)O)CC[C@]32C)[C@@]1(C)/C=C/NC=O", "inactive"),
    ("COC(=O)C(C)(C)[C@@H]1CC[C@]2(C)[C@H](CC[C@@H]3[C@@H]([C@]4(C)CC[C@H](C(C)(C)O)O4)CC[C@]32C)[C@@]1(C)/C=C/NC=O", "inactive"),
    ("C=C(C)[C@@H]1CC[C@]2(C)[C@H](CC[C@@H]3[C@@H]([C@](C)(O)CC[C@@H](O)C(C)(C)O)CC[C@]32C)[C@@]1(C)CCC(=O)OC", ">=90%"),
]

###

System: Porphyromonas gingivalis
ASSAY_PROTOCOL: Antibacterial activity against Porphyromonas gingivalis CCUG 25893 assessed as growth inhibition at 25 to 200 uM incubated for 24 hrs by microtiter plate based assay
Assay type: functional
Active and inactive are the calls of the source. The calls are words filed in the database; no cut-off is given here.

# QUERY_SMILES, growth inhibition (GI)
records = [
    ("COC(=O)C(C)(C)[C@@H]1CC[C@]2(C)[C@H](CC[C@@H]3[C@@H]([C@](C)(O)CC[C@@H](O)C(C)(C)O)CC[C@]32C)[C@@]1(C)/C=C/NC=O", "60 - 89%"),
    ("COC(=O)C(C)(C)[C@@H]1CC[C@]2(C)[C@H](CC[C@@H]3[C@@H]([C@]4(C)CC[C@H](C(C)(C)O)O4)CC[C@]32C)[C@@]1(C)/C=C/NC=O", "inactive"),
    ("COC(=O)C(C)(C)[C@@H]1CC[C@]2(C)[C@H](CC[C@@H]3[C@@H]([C@](C)(O)CC[C@@H](O)C(C)(C)O)CC[C@]32C)[C@@]1(C)CC=O", "inactive"),
    ("COC(=O)C(C)(C)[C@@H]1CC[C@]2(C)[C@H](CC[C@@H]3[C@@H]([C@](C)(O)CC[C@@H](O)C(C)(C)O)CC[C@]32C)[C@@]1(C)CC(=O)O", "inactive"),
    ("C=C(C)[C@@H]1CC[C@]2(C)[C@H](CC[C@@H]3[C@@H]([C@](C)(O)CC[C@@H](O)C(C)(C)O)CC[C@]32C)[C@@]1(C)CCC(=O)OC", "60 - 89%"),
]
